Assignment: determine reported GI50 for the given compounds.
System: OVCAR-3
Experiment: NCI tumour cell line growth inhibition, 48 h
Activity calls are given as the source filed them. No stated cut-off is given here; in the data, active = GI50 up to about 1.1 µM and inactive = higher.

Consider C=C1C(=O)O[C@@H]2[C@H]3O[C@]3(C)CCC=C(C)CC[C@@H]12 . Its measured GI50 is 18.4 µM (inactive)

According to the records, this compound Clc1ccc2c(NCCCCCCNc3ccnc4cc(Cl)ccc34)ccnc2c1 displays GI50 of 1.84 µM (inactive)

Form: compound = O=C1OC([C@H](O)c2cccnc2)c2ccccc21 (some centres not stated) ; GI50 = > 10 µM (inactive)

The reported GI50 of the compound CN(C)c1ccc(/C=C/c2ccc(S(N)(=O)=O)cc2)cc1 was 20.4 µM (inactive)

# GI50 (compound: NCCn1cnc2nc(NC(=O)c3ccccc3)[nH]c(=O)c21 ) is > 100 µM (inactive)

// CC(C#N)N(CCc1ccccc1)C(=O)c1ccccc1 (configuration not stated) : GI50 value = > 100 µM (inactive)

Noted for Brc1cccc(Nc2ncnc3sc4c(c23)CCC(Nc2cccc(Br)c2)C4)c1 (configuration not stated) : its GI50 reads > 100 µM (inactive)

Query Cc1nc2c(n1-c1ccc(Br)cc1)C(=O)c1ccccc1C2=O yields GI50 of 12 µM (inactive)

Data point: CCOc1c(/N=N/c2ccccc2Cl)c(-c2ccccc2)nn1C(=S)S ; GI50 = 25 µM (inactive)

OCC(O)COCn1cc(Cn2ncc3c(SCc4ccccc4)ncnc32)nn1 (configuration not stated) has a reported GI50 of > 100 µM (inactive)

# GI50 (compound: COc1cc(S(=O)(=O)Nc2nc(-c3ccc(N4C(=O)CSC4c4cccs4)cc3)cs2)ccc1Cl (configuration not stated) ) is 33.7 µM (inactive)

For record Nc1c(C(=O)O)nnc2ccc(Cl)cc12 the listed GI50 is > 100 µM (inactive)

GI50 recorded for this compound, CC(=O)Nc1ccc2c3c(cc(O)c2c1)N(C(=O)CCCC(=O)Nc1ccc2c4c(cc(O)c2c1)N(C(=O)OC(C)(C)C)CC4CCl)CC3CCl (configuration not stated) , is 1.1 µM (active)

Kindly note the recorded GI50 for N/N=C(/Cc1nc2ccc(C(=O)c3ccccc3)cc2nc1O)C(=O)Nc1ccc([N+](=O)[O-])cc1[N+](=O)[O-] , which is > 10 µM (inactive)

GI50 for O=C(O)[C@H](NS(=O)(=O)c1ccc([N+](=O)[O-])cc1)c1ccccc1 is > 100 µM (inactive)

// GI50 value for COC1(C)CP(=O)(OC(C)C)CC(C)=C1Cl (configuration not stated) : 10.7 µM (inactive)

Lab book: GI50 of Cc1nn(C)c(=S)n(C)c1=O noted as 4.19 µM (inactive)

Kindly note the recorded GI50 for CC(C)(C)C(=O)OCOP(=O)(OCOC(=O)C(C)(C)C)OCC1OC(n2ccc(=O)[nH]c2=O)C(N=[N+]=[N-])C1O (configuration not stated) , which is 0.4 µM (active)

Entry Nc1ncc2c(n1)-c1ccccc1OC2N1CCCC1 (configuration not stated) — recorded GI50 = > 100 µM (inactive)

Notebook: CCOC(=O)C(=O)Nc1cccc(C)c1C , GI50 read as > 100 µM (inactive)

The recorded GI50 for entry CC(C)c1cc(=O)[nH]c2cc(N)ccc12 equals > 100 µM (inactive)

Just so you know, measured GI50 for COCCc1c(C)c(C#N)c2n(C)c3ccccc3n2c1=O came out at > 10 µM (inactive)

====

Tested on: SN12C
Assay: NCI tumour cell line growth inhibition, 48 h
Calls of active or inactive are those of the source. Rule as the data show it: active = GI50 up to about 1.1 µM and inactive = higher.
Mark one answer only. Choices: 1 = active, -1 = inactive

Name the outcome recorded for COc1ccc(-c2c(C(=O)Nc3ccccc3)c(-c3ccccc3)n(C3OC(CO)C(O)C(O)C3O)c(=S)c2C#N)cc1 (stereo not given) in the assay.
-1

What was the test verdict on CC(=O)c1ccccc1NC(=O)C(=O)C(C(=O)c1ccc2ccccc2c1)C1OC(=O)c2ccccc21 (stereo not given) ?
-1

Test call, this molecule: CCOC1CC(=O)c2c(Br)sc(Br)c21 (stereo not given)
-1

How did this test come out for O=C(CCC(=O)Nc1ccc(Cl)c(Cl)c1)Cc1nc2ccccc2o1 ?
-1

# lookup: test call for COc1ccc(C2C(C(=O)O)=C(COC(C)=O)Oc3cc4c(cc32)OCO4)c(OC)c1 (stereo not given)
-1

For N=C(N)Nc1ccc(CC(N)C(=O)NCC(=O)C(CC(=O)O)c2ncc(NC(=O)C(F)(F)F)o2)cc1 (stereo not given) , which call appears in the assay record?
-1

Outcome logged for CC(C)(O)C1CC[C@]2(C)[C@H]3CC[C@@H]4[C@@]5(C)CCCC(C)(C)[C@@H]5CC[C@@]4(C)[C@]3(C)CC[C@@H]12 (stereo not given in full) in this assay:
-1

Assay result, entry C=CC[C@@]1(C#N)C[C@H](C[C@]2(C#N)C[C@H](CCl)OC(C)(C)O2)OC(C)(C)O1 — outcome?
-1

Would you mind telling me which call this test gave COc1cccc(NC(=O)CSc2nnc(-c3ccc(/N=C\c4ccc(Cl)cc4)cc3)o2)c1 ?
-1

Could you kindly confirm the outcome this assay logged for COCCc1c(C)c(C#N)c2n(C)c3ccccc3n2c1=O ?
-1

Just curious, what result did Brc1ccc2c(c1)-c1nc3nc4c(cc3cc1CC2)CCc1ccc(Br)cc1-4 get here?
-1

State the result this test recorded for Clc1sc(Cl)c2c1[C@@H](Cl)C[C@@H]2Cl .
-1

Dear colleague, could you share the recorded outcome for CCCCNC1=C2C(=O)NN=C2CO1 when you have a moment?
-1

Which result was noted for this molecule in the test: Cc1ccc2nc(NC(=O)/C(=N\NC(=S)NN)C3C(=O)NC(=S)NC3=O)sc2c1
-1

Called result for NCCOc1ccccn1
-1

Which outcome did this test record for the molecule CCCCC(C(=O)NCCNC(=O)CCC(=O)N(C)O)C(=O)NCCNC(=O)CCC(=O)N(C)O ?
-1

Record lookup: outcome of this test for C[N+]1(CCC(=O)c2ccccc2)CCC2CCC(C2)C1 (stereo not given) ?
-1

Query: recorded result category for O=C1c2scc(-c3ccccc3)c2-n2cccc21 in this test
-1

Record request — test call for Nc1nc(Nc2ccc(Cl)cc2)sc1C(=O)c1cc2ccccc2oc1=O
-1

Each molecule tested received a call. Report the one for CCN1C[C@]2(COC)[C@H](O)C[C@H](OC)[C@]34C1[C@H]([C@H](OC)[C@H]23)[C@]1(OC(C)=O)[C@H]2[C@@H](OC(=O)c3ccccc3)[C@](O)(C[C@H]24)[C@@H](OC)[C@@H]1O .
-1

Which result was noted for this molecule in the test: CCN(CCCl)CCCCNc1c2ccccc2nc2ccc(OC)cc12
1

What outcome does the record of this test show for COc1cc(OC)c2nc(C)c3c(c2c1)SCC3 ?
-1

What call does the record list for CC(C)(C)C(=O)OCOP(=O)(OCOC(=O)C(C)(C)C)OCC1OC(n2ccc(=O)[nH]c2=O)C(N=[N+]=[N-])C1O (stereo not given) ?
-1

I would be grateful if you could indicate the recorded call for CC(C)(C)OC(=O)NC1CCCC1=O (stereo not given) .
-1

Hi, do you know how NC1CCN(c2nc3ccccc3c3c2CCCC3)CC1 came out in this test?
-1

Record request — test call for COc1cccc(C2C(C(=O)O)=C(CO)Oc3cc4c(cc32)OCO4)c1 (stereo not given)
-1

Would you mind telling me which call this test gave COc1cc(C(Cc2ccccc2)NC(C)=O)oc(=O)c1 (stereo not given) ?
-1

Lab log entry: C=CC1CCC[N+]1(CC(=O)OCC)Cc1ccccc1 (stereo not given) — outcome as called in the assay?
-1

Please state the recorded outcome for this molecule: CCN(CC)CC1CCCCN1CC(=O)N1c2ccc(Br)cc2C(=O)Nc2cccnc21 (stereo not given)
-1

Could you check what this test reported for COc1cc(Cc2nccc3cc(OC)c(OC)cc23)c(C(C)=O)cc1OC ?
-1

====

Tested on: SK-MEL-5
Experiment: NCI tumour cell line growth inhibition, 48 h
Calls of active or inactive are those of the source. Rule as the data show it: active = GI50 up to about 1.1 µM and inactive = higher.
Hi! Could you answer with just one of these? label 1 for active, label 0 for inactive

For NC1C2C(CC(=O)O)OCC=C3CN4CCC1(C(=O)C(=O)O)C4CC32 (stereo not drawn) , what call appears in the results of this test?
label 0

Can you look up the reported call for CN(C)c1ccc(/C=C/c2ccc(S(N)(=O)=O)cc2)cc1 for me?
label 0

Kindly provide the recorded test outcome for the following compound: Nc1c(C(=O)O)nnc2ccc(Cl)cc12
label 0

Could you check what this test reported for Cc1ccc(C)c2c1CC(Cc1ccccc1C(=O)O)C2=O (stereo not drawn) ?
label 0

Identify the outcome logged in this assay for the compound shown: CNC(=O)N(C)C(=O)c1ccccc1C(=O)N(C)C(=O)NC
label 0

What classification did COc1ccc(-c2c(C(=O)Nc3ccccc3)c(-c3ccccc3)n(C3OC(CO)C(O)C(O)C3O)c(=S)c2C#N)cc1 (stereo not drawn) end up with in this test?
label 0

Field: outcome | Entry: COc1cc(C(Cc2ccccc2)NC(C)=O)oc(=O)c1 (stereo not drawn)
label 0

Which outcome was assigned to C=CS(=O)(=O)CCN1CC1 in this test?
label 0

Hi team, can someone confirm the assay call for CCCCC(C(=O)NCCNC(=O)CCC(=O)N(C)O)C(=O)NCCNC(=O)CCC(=O)N(C)O ?
label 0

Just curious, what result did Cc1ccc(O)c(C2=CC3=NNC(=O)C3C(c3cccc(Br)c3)C2)c1 (stereo not drawn) get here?
label 0

Hey, what did the test say about NC1CCCCC1.O=P(O)(O)C(O)/C=C/c1ccccc1 (stereo not drawn) ?
label 0

Lab log entry: OCc1cn(C(c2ccccc2)(c2ccccc2)c2ccccc2)cn1 — outcome as called in the assay?
label 0

What classification did COc1ccc(CC2CCc3nc(N)nc(N)c3C2)cc1OC (stereo not drawn) end up with in this test?
label 1

// outcome(item) with item = CC(C)(C)OC(=O)NC1CCCC1=O (stereo not drawn)
label 0

Dear colleague, could you share the recorded outcome for COC(=O)c1ccccc1C1CN=NC12Cc1cc(C)c(C)cc1C2=O (stereo not drawn) when you have a moment?
label 0

Dear colleague, could you share the recorded outcome for CC(=O)OC1CCC2OOC1O2 (stereo not drawn) when you have a moment?
label 0

# lookup: test call for CC(=O)OC(CN1CCN(c2ccccn2)CC1)Cn1sc2nc(C)cc(C)c2c1=O (stereo not drawn)
label 0

Called result for N/N=C(/Cc1nc2ccc(C(=O)c3ccccc3)cc2nc1O)C(=O)Nc1ccc([N+](=O)[O-])cc1[N+](=O)[O-]
label 0

Recorded call for COCCc1c(C)c(C#N)c2n(C)c3ccccc3n2c1=O ?
label 0

Lab log entry: NC(=O)NC(=O)c1cccc(NC(=O)CF)c1 — outcome as called in the assay?
label 0

Field: outcome | Entry: CN1CCN(C(=S)N(C(=O)c2ccc(Cl)cc2)c2ccccc2)CC1
label 0

In this assay, the call recorded for CC(C)(Br)C1(O)CCCN1C(=O)c1ccccc1 (stereo not drawn) was what?
label 0

Returns: the outcome recorded for COc1ccc(-c2nc3ncccn3c2-c2ccc(S(C)(=O)=O)cc2)cc1 in this assay.
label 0

Which result was noted for this compound in the test: CC(C)(O)C1CC[C@]2(C)[C@H]3CC[C@@H]4[C@@]5(C)CCCC(C)(C)[C@@H]5CC[C@@]4(C)[C@]3(C)CC[C@@H]12 (stereo partly drawn)
label 0

So what was the verdict on CCCCCCCCCCCC1=NCCN1 in this test?
label 0

Write down the call the test reported for this compound. Item: CC(C)(C)C(=O)OCOP(=O)(OCOC(=O)C(C)(C)C)OCC1OC(n2ccc(=O)[nH]c2=O)C(N=[N+]=[N-])C1O (stereo not drawn)
label 0

In this assay, the call recorded for CC(C#N)N(CCc1ccccc1)C(=O)c1ccccc1 (stereo not drawn) was what?
label 0

Could you check what this test reported for Nc1cc2[nH]cnc2c(=O)[nH]1 ?
label 0

Tell me the recorded outcome of this test for CC(=O)c1ccccc1NC(=O)C(=O)C(C(=O)c1ccc2ccccc2c1)C1OC(=O)c2ccccc21 (stereo not drawn) .
label 0

Outcome? Cc1ccc(/N=C2\C(=O)C3=C(OC(C)(C)CC3)c3ccccc32)cc1
label 1

Could you please tell me the result logged for O=C(O)COc1cc(-c2ccccc2)nc2ccccc12 in this assay?
label 0

GET /call?item= CCCCCCCCCC(O)CC(=O)c1c(O)cccc1O (stereo not drawn) returns the recorded outcome of this test.
label 0

// return assay outcome for COc1cccc(NC(=O)CSc2nnc(-c3ccc(/N=C\c4ccc(Cl)cc4)cc3)o2)c1
label 0

For CCOC(=O)c1oc2c(OC)cc(Cl)c3c2c1CCC3 , which call appears in the assay record?
label 0

# outcome recorded in this test, key = C=C(c1ccccc1)C1(O)CCCCC1N (stereo not drawn)
label 0

Which outcome was entered for the compound COc1cc2c(cc1O)CCN[C@@]21CS[C@H]2c3c(OC(C)=O)c(C)c4c(c3C(COC1=O)N1C2C2NC(Cc3cc(C)c(OC)c(O)c32)[C@@H]1C#N)OCO4 (stereo partly drawn) in this test?
label 1

Lab log entry: COc1cccc2c1c1ccc3c(c1n2C)C(=O)C=CC3=O — outcome as called in the assay?
label 0

I'd appreciate the recorded outcome for Nc1nc(Nc2cc(F)c(Cl)c(F)c2)cc(=O)[nH]1 from this test.
label 0

Recorded test call requested for CCOC(=O)c1[nH]cc(C)c1-c1ccc2c(-c3ccccc3)nc3ccccc3n12
label 0

Tell me the assay call for O=S(=O)(O)c1ccc(/N=N/c2ccc3c(S(=O)(=O)O)cccc3c2O)c2ccccc12 please.
label 0

Tell me the assay call for CCN(CC)CCOc1ccc(N2Cc3ccccc3C2=O)cc1 please.
label 0

Outcome? CCOC(=O)CCC(NC(=O)c1ccc(Nc2cnc3cc(C(F)(F)F)ccc3n2)cc1)C(=O)OCC (stereo not drawn)
label 0

Dear all, I need the recorded test outcome for CCOC(C[C@H](O[Si](C)(C)C(C)(C)C)[C@H]1COC(=S)S1)OCC , thank you.
label 0
